tested-system: UniProt:P46002
Sequence (P46002 whole entry): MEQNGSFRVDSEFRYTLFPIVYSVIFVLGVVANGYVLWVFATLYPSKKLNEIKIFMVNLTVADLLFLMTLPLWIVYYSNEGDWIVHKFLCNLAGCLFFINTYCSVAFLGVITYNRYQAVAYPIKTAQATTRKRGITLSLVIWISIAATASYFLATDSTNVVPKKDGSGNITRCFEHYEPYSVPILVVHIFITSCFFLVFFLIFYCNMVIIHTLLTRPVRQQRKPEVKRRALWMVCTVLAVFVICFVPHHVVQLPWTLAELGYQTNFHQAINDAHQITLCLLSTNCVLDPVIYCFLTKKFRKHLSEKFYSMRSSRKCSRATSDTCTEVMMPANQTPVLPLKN
assay-procedure: Dose required to inhibit PAF-induced hypotension (PAF-Antagonistic activity) in normotensive rats by 50%.
Format: functional
Could you please report measured log10 of ID50 for the items listed next?
Values reflect log10 of reported ID50 (mg/kg).

What value of log10 of ID50 has been reported for the following molecule? `O=C(CC(c1ccccc1)c1ccccc1)N1CCC(Nc2cccnc2)CC1`
0.38

What value of log10 of ID50 has been reported for the following molecule? N#CC(c1cncs1)N1CCN(C(=O)CC(c2ccccc2)c2ccccc2)CC1 (configuration not stated)
-0.12

What value of log10 of ID50 has been reported for the following molecule? CCCCCCCC(=O)N1CCN(C(C#N)c2cccnc2)CC1 (configuration not stated)
0.08

What value of log10 of ID50 has been reported for the following molecule? N#CC(c1cccnc1)N1CCN(C(=O)OCC(c2ccccc2)c2ccccc2)CC1 (configuration not stated)
-1.11

What value of log10 of ID50 has been reported for the following molecule? COc1cc(CC(=O)N2CCN(C(C#N)c3cccnc3)CC2)cc(OC)c1OC (configuration not stated)
0.40

What value of log10 of ID50 has been reported for the following molecule? N#CC(c1cccnc1)N1CCN(C(=O)C=C(c2ccccc2)c2ccccc2)CC1 (configuration not stated)
-1.31

What value of log10 of ID50 has been reported for the following molecule? `N#CC(=C1CCN(C(=O)CC(c2ccccc2)c2ccccc2)CC1)c1cccnc1`
-0.38

What value of log10 of ID50 has been reported for the following molecule? N#CC(c1cccnc1)N1CCN(C(=O)C(Cc2ccccc2)Cc2ccccc2)CC1 (configuration not stated)
-0.17

What value of log10 of ID50 has been reported for the following molecule? N#CC(c1ccncc1)N1CCN(C(=O)CNC(=O)C(c2ccccc2)c2ccccc2)CC1 (configuration not stated)
-0.33

What value of log10 of ID50 has been reported for the following molecule? CC(c1cccnc1)N1CCN(C(=O)C(c2ccccc2)c2ccccc2)CC1 (configuration not stated)
0.56

What value of log10 of ID50 has been reported for the following molecule? `N#CC1(Nc2cccnc2)CCN(C(=O)CC(c2ccccc2)c2ccccc2)CC1`
-1.40

What value of log10 of ID50 has been reported for the following molecule? N#CC(c1cccnc1)N1CCN(CC(=O)NCCC(c2ccccc2)c2ccccc2)CC1 (configuration not stated)
0.48

What value of log10 of ID50 has been reported for the following molecule? N#CC(c1cccnc1)N1CCN(C(=O)CNCCC(c2ccccc2)c2ccccc2)CC1 (configuration not stated)
-0.68

What value of log10 of ID50 has been reported for the following molecule? `Cc1nnc2n1-c1sc(CCC(=O)N3CCOCC3)cc1C(c1ccccc1Cl)=NC2`
-0.77

What value of log10 of ID50 has been reported for the following molecule? N#CC(c1cccnc1)N1CCN(C(=O)CC(c2ccccc2)c2ccccc2)CC1 (configuration not stated)
-1.89

What value of log10 of ID50 has been reported for the following molecule? N#CC(c1cccnc1)N1CCN(C(=O)C(Cc2ccccc2)c2ccccc2)CC1 (configuration not stated)
-0.92

What value of log10 of ID50 has been reported for the following molecule? N#CC(c1cccnc1)C1CCN(C(=O)C(c2ccccc2)c2ccccc2)CC1 (configuration not stated)
-1.64

What value of log10 of ID50 has been reported for the following molecule? N#CC(c1cccnc1)N1CCN(CCNC(=O)CC(c2ccccc2)c2ccccc2)CC1 (configuration not stated)
0.34

What value of log10 of ID50 has been reported for the following molecule? CCCCC(=O)N1CCN(C(C#N)c2cccnc2)CC1 (configuration not stated)
0.63

What value of log10 of ID50 has been reported for the following molecule? N#CC(c1cccnc1)N1CCN(C(=O)CC(O)(c2ccccc2)c2ccccc2)CC1 (configuration not stated)
-1.21

What value of log10 of ID50 has been reported for the following molecule? N#CC(c1cccnc1)N1CCN(C(=O)CN(Cc2ccccc2)c2ccccc2)CC1 (configuration not stated)
-0.38

What value of log10 of ID50 has been reported for the following molecule? N#CC(c1cccnc1)N1CCN(C(=O)CNCc2ccccc2)CC1 (configuration not stated)
-0.10
